Origin of the recorded values: patent US12264159B2

# test summary: Compound induced cellular toxicity in HepG2 cells, ATPlite 1Step
# Format: cell-based
# condition set: human, three days exposure, 50% reduction of total ATP vs no drug controls
# Description: At day 3, post seeding cells are treated with ATPlite 1Step according to the manufacturer's instructions.
test readout: CC50 at 3 days

Task: Name the recorded CC50 at 3 days of the molecule listed here: CC(C)(C)[C@@H]1Cn2nc(-c3cc(F)c(F)cc3N)cc2-c2cc(=O)c(C(=O)O)cn21
Output: > 25 µM

Task: Quick one: give measured CC50 at 3 days for COc1ccc(-c2cnn3c2-c2cc(=O)c(C(=O)O)cn2[C@H](C(C)(C)C)C3)cc1
Output: > 25 µM

Task: Answer with the recorded CC50 at 3 days of CC(C)(C)[C@@H]1Cn2nc(C3CC3)c(-c3ccoc3)c2-c2cc(=O)c(C(=O)O)cn21 only.
Output: > 25 µM

Task: Determine its reported CC50 at 3 days: CCOc1ccc(OC)cc1-c1cc2n(n1)C[C@@H](C(C)(C)C)n1cc(C(=O)O)c(=O)cc1-2
Output: > 25 µM

Task: Entry CC(C)(C)[C@@H]1Cn2ncc(-c3c(F)ccc4c3OCO4)c2-c2cc(=O)c(C(=O)O)cn21 needs its CC50 at 3 days filled in; supply it.
Output: > 25 µM

Task: Tell me measured CC50 at 3 days for COc1ccc(-c2c(C3CC3)nn3c2-c2cc(=O)c(C(=O)O)cn2[C@H](C(C)(C)C)C3)cc1 please.
Output: > 25 µM

Task: Provide CC50 at 3 days value for the following molecule: CC(C)(C)[C@@H]1Cn2nc(-c3ccc(F)cc3)c(-c3ccc(F)cc3)c2-c2cc(=O)c(C(=O)O)cn21
Output: > 25 µM
